Provenance of the data: patent US12686673B2

system-tested: EGFR (A767_dupASV) expressing Ba/F3 stable cell line (Homo sapiens, UniProt P00533, DUP767-769, cells depend on it)
Sequence (P00533 with tags, fused parts or gaps DUP767-769): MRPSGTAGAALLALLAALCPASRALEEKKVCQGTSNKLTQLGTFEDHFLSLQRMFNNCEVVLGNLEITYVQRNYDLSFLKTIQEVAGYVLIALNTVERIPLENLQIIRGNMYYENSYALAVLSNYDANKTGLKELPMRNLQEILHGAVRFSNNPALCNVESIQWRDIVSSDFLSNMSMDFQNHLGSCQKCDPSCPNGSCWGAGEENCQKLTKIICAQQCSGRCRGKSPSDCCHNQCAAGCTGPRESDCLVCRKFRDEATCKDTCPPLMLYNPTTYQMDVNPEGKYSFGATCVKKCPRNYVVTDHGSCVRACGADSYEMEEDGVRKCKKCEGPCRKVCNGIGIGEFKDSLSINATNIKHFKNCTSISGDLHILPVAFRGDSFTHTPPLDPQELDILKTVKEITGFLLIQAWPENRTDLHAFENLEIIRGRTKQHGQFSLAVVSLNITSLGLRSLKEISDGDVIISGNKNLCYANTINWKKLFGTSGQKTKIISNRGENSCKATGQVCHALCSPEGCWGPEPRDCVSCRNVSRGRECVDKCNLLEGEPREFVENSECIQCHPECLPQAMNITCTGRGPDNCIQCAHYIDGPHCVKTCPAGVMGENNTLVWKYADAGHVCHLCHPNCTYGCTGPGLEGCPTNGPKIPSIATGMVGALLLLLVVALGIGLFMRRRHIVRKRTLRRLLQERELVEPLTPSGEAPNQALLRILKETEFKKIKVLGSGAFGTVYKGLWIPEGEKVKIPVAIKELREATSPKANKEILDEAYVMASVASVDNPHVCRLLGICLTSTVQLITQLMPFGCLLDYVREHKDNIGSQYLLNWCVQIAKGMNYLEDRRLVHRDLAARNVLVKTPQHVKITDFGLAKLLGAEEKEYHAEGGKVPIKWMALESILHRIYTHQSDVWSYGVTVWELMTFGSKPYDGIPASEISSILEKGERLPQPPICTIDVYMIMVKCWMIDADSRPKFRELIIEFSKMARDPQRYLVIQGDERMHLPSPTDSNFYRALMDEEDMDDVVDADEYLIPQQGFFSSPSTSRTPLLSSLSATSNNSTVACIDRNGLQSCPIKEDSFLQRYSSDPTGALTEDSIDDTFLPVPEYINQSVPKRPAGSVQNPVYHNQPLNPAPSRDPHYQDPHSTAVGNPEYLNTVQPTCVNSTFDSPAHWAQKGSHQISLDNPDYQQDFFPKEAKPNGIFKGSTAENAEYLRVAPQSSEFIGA
method-description: Cellular proliferation (Alamar Blue) assay, EGFR A767_dupASV Ba/F3
Assay type: cell-based
test-parameters: 72 hr, read-out: A767 IC50
Where a name gives a salt, the structure may show the parent alone.
assay-readout: GI50 (nM)

Examples from the recorded data:
>  <compound>
C=CC(=O)Nc1ccc(F)c(Nc2nc(Nc3cnn(C)c3)ncc2-c2cccc(C(=O)NC)c2)c1

>  <value-observed>
7650

$$$$
>  <compound>
C=CC(=O)Nc1ccc(F)c(Nc2nc(Nc3cnn(C)c3)ncc2-c2ccc(C(F)(F)F)nc2)c1

>  <value-observed>
71

$$$$
>  <compound>
C=CC(=O)Nc1cccc(Nc2nc(Nc3cnn(C)c3)ncc2-c2cncc(C(F)F)c2)c1 [Compound 144, trifluoroacetate]

>  <value-observed>
70

$$$$
>  <compound>
COc1cc(N2CCCCC2)ccc1Nc1ncc(C(=O)N(C)c2ccccc2)c(Nc2cccc(NC(=O)/C=C/CN(C)C)c2)n1

>  <value-observed>
982

$$$$
>  <compound>
C=CC(=O)Nc1ccc(F)c(Nc2nc(Nc3cnn(C)c3)ncc2-c2cn[nH]c2)c1

>  <value-observed>
942

$$$$

[I] C=CC(=O)Nc1cccc(Oc2nc(Nc3cnn(C)c3)ncc2-c2ccc(C(F)(F)F)nc2)c1
[II] C=CC(=O)Nc1ccc(F)c(Nc2nc(Nc3cnn(C)c3)ncc2Br)c1
Endpoint returns the identifier whose GI50 is numerically larger, either I or II . API: response body contains the label of the selected item.
II
(II: 411 nM, I: 56 nM)
